study_system: p53‐hDMX interaction (Homo sapiens)
Sequence (O15151 whole entry): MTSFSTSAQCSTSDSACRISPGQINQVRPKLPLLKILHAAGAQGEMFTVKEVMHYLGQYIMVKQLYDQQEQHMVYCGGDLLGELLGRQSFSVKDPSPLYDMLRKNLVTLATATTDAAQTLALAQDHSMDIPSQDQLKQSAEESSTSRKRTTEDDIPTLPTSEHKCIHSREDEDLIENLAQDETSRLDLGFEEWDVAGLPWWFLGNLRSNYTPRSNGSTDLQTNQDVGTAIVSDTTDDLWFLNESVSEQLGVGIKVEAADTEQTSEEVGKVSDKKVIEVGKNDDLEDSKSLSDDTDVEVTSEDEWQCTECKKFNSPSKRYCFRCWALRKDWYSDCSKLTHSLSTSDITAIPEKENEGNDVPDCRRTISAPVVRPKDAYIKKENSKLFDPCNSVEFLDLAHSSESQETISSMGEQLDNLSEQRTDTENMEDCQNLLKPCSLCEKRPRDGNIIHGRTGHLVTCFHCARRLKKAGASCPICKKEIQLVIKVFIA
experimental_protocol: TR-FRET
study_conditions: IC50±SEM hDMX, 9-point curves in duplicates
*1 amine or outer side, *2 acyl side, *3 side chain or, on linkers, in order; H or OH if unused. Where a SMILES comes first, the peptide text is derived from it. Bridges are numbered along the chain shown (N, C = ends). The star is where a group is joined. X1 = CC(C)C[C@@H](CNC(=O)N1C[C@@H](SCCCCCC[*:1])C[C@H]1C(N)=O)NC(=O)NC[C@H](CC(C)C)N[*:2]; X4 = CC(C)C[C@@H](CNC(=O)N1CCC[C@H]1C(N)=O)NC(=O)NC[C@H](CC(C)C)N*; X2 = CC(C)C[C@@H](CNC(=O)N[C@@H](C)CNC(=O)N1CCC[C@H]1C(N)=O)N*
compounds and their reported IC50

compound: CC(=O)N[C@@H](CCCCN)C(=O)N[C@H](C(=O)N[C@@H](Cc1ccccc1)C(=O)N[C@H]1CSCCCCCCS[C@H]2C[C@@H](C(N)=O)N(C2)C(=O)NC[C@H](CC(C)C)NC(=O)NC[C@H](CC(C)C)NC(=O)[C@H](C)NC(=O)[C@H](Cc2c[nH]c3ccccc23)NC(=O)[C@H](Cc2ccc(O)cc2)NC(=O)[C@H](CCC(=O)O)NC1=O)[C@@H](C)O [Compound 10 a] (Ac-KTFCEYWA; linker 4-C via X1)
study_system: p53‐hDMX interaction (Homo sapiens)
u: µM
IC50: 0.063

compound: CC(C)C[C@H]1CNC(=O)N2C[C@H](C[C@H]2C(N)=O)SCCCCCCSC[C@H](NC(=O)[C@H](Cc2ccccc2)NC(=O)[C@H](CO)NC(=O)[C@@H](N)[C@@H](C)O)C(=O)N[C@@H](CCC(=O)O)C(=O)N[C@@H](Cc2ccc(O)cc2)C(=O)N[C@@H](Cc2c[nH]c3ccccc23)C(=O)N[C@@H](C)C(=O)N[C@@H](CC(C)C)CNC(=O)N1 [Compound 8 a] (H-TSFCEYWA; linker 4-C via X1)
study_system: p53‐hDMX interaction (Homo sapiens)
u: µM
IC50: 0.075

compound: CC(C)C[C@@H](CNC(=O)N1CCC[C@H]1C(N)=O)NC(=O)NC[C@H](CC(C)C)NC(=O)[C@H](C)NC(=O)[C@H](Cc1c[nH]c2ccccc12)NC(=O)[C@H](Cc1ccc(O)cc1)NC(=O)[C@H](CCC(=O)O)NC(=O)[C@H](C)NC(=O)[C@H](Cc1ccccc1)NC(=O)[C@H](CO)NC(=O)[C@@H](N)[C@@H](C)O [Compound 4] (H-TSFAEYWA-X4)
study_system: p53‐hDMX interaction (Homo sapiens)
u: µM
IC50: 0.115

compound: CC(C)C[C@@H](CNC(=O)N[C@@H](C)CNC(=O)N1CCC[C@H]1C(N)=O)NC(=O)[C@H](C)NC(=O)[C@H](Cc1c[nH]c2ccccc12)NC(=O)[C@H](Cc1ccc(O)cc1)NC(=O)[C@H](CCC(=O)O)NC(=O)[C@H](C)NC(=O)[C@H](Cc1ccccc1)NC(=O)[C@H](CO)NC(=O)[C@@H](N)[C@@H](C)O [Compound 3] (H-TSFAEYWA-X2)
study_system: p53‐hDMX interaction (Homo sapiens)
u: µM
IC50: 0.247
